The measured values listed here are drawn from patent US10604523B2.

Listed compounds paired with reported PO Dose at Max Effect
- Test system: Apomorphine-induced agitation
- test: Reversal of Apomorphine-induced Agitation in Rats (APO)
- Format: in vivo, rat
- applied conditions: oral route
Response body: numeric value in mg/kg, unit text excluded.

Below, each entry is followed by its recorded PO Dose at Max Effect result.
>>> print(df.to_string())
                                   compound   unit  test_result
0  Cc1nc2ccc(C(=O)NCCO)cc2n2c(-c3ccccc3Cl)nnc12 [Compound B-42]  mg/kg           10
1  Cc1nc2ccc(C(=O)NCCc3ccccc3)cc2n2c(-c3ccccc3Cl)nnc12 [Compound B-38]  mg/kg          2.5
2  COc1ccc(-c2nnc3c(C)nc4ccc(C(=O)NCc5ccccn5)cc4n23)c(Cl)c1 [Compound B-74]  mg/kg           10

Give the reported value of PO Dose at Max Effect for this record: COc1ccc(Cl)c(-c2nnc3c(C)nc4ccc(CN5CCOCC5)cc4n23)c1 [Compound B-84] 10
